Test system: growth hormone secretion
assay name: GHRP induced growth hormone secretion, intravenous administration (Rat IV)
Type: in vivo
assay context: Table IV; iv injection, serum GH 10 min after injection
Non-standard residues stand in square brackets, D forms with d. Residues, ends and D or L forms follow the SMILES beside them. dPhe(4-Cl) = N[C@H](Cc1ccc(Cl)cc1)C(=O)O; d2Nal = N[C@H](Cc1ccc2ccccc2c1)C(=O)O; Inp = O=C(O)C1CCNCC1; GABA = NCCCC(=O)O; βAla = NCCC(=O)O
attribute measured: RAT IV ED50 (µg)

{"columns": ["molecule", "target under test", "endpoint unit", "numeric readout"],
 "data": [
  ["NC(=O)[C@@H]1CCCN1C(=O)[C@@H](Cc1ccc2ccccc2c1)NC(=O)[C@@H](Cc1ccc2ccccc2c1)NC(=O)C1CCNCC1 [(inip) b b P amide] (H-[Inp][d2Nal][d2Nal]P-NH2)", "growth hormone secretion", "µg", 5],
  ["NC(=O)[C@H](Cc1ccccc1)NC(=O)[C@@H](Cc1ccc(Cl)cc1)NC(=O)[C@@H](Cc1ccc2ccccc2c1)NC(=O)C1CCNCC1 [(inip) b chf F amide] (H-[Inp][d2Nal][dPhe(4-Cl)]F-NH2)", "growth hormone secretion", "µg", 5],
  ["NC(=O)CCCNC(=O)[C@@H](Cc1ccc2ccccc2c1)NC(=O)[C@@H](Cc1ccc2ccccc2c1)NC(=O)C1CCNCC1 [(inip) b b ab amide] (H-[Inp][d2Nal][d2Nal][GABA]-NH2; N-terminus assumed)", "growth hormone secretion", "µg", 10],
  ["NCCCCN(CCc1ccccc1)C(=O)[C@@H](Cc1ccc2ccccc2c1)NC(=O)[C@@H](Cc1ccc2ccccc2c1)NC(=O)C1CCNCC1", "growth hormone secretion", "µg", 0.67],
  ["NC(=O)CCNC(=O)[C@@H](Cc1ccc2ccccc2c1)NC(=O)[C@@H](Cc1ccc2ccccc2c1)NC(=O)C1CCNCC1 [(inip) b b bA amide] (H-[Inp][d2Nal][d2Nal][βAla]-NH2)", "growth hormone secretion", "µg", 10]
]}

###

System: growth hormone secretion
assay name: GHRP induced growth hormone secretion, intravenous administration (Rat IV)
Type: in vivo
assay context: Table IV; iv injection, serum GH 10 min after injection
Starred links: 1 amine or outer side, 2 acyl side, 3 side chain; linkers in the order of their positions; H or OH if unused. Non-standard residues stand in square brackets, D forms with d. Residues, ends and D or L forms follow the SMILES beside them. dNMe2Nal = CN[C@H](Cc1ccc2ccccc2c1)C(=O)O; 2Nal = N[C@@H](Cc1ccc2ccccc2c1)C(=O)O; d2Nal = N[C@H](Cc1ccc2ccccc2c1)C(=O)O; Ethylenediamine = C(CN[*:2])N[*:1]; NMeF = CN[C@@H](Cc1ccccc1)C(=O)O; αMeF = C[C@](N)(Cc1ccccc1)C(=O)O; Inp = O=C(O)C1CCNCC1; Ava = NCCCCC(=O)O; GABA = NCCCC(=O)O

{"columns": ["molecule", "RAT IV ED50, µg"],
 "data": [
  ["CN(C(=O)CCCN)[C@H](Cc1ccc2ccccc2c1)C(=O)N[C@H](Cc1ccc2ccccc2c1)C(=O)N[C@@H](Cc1ccccc1)C(N)=O [(Ab) nmb b F amide] (H-[GABA][dNMe2Nal][d2Nal]F-NH2)", 20],
  ["NCCCCC(=O)N[C@H](Cc1ccc2ccccc2c1)C(=O)N[C@H](Cc1ccc2ccccc2c1)C(=O)N[C@@H](Cc1ccccc1)C(N)=O [(Ava) b b F amide] (H-[Ava][d2Nal][d2Nal]F-NH2)", 100],
  ["CN(C(=O)C1CCNCC1)[C@H](Cc1ccc2ccccc2c1)C(=O)N[C@H](Cc1ccc2ccccc2c1)C(=O)N[C@@H](Cc1ccccc1)C(N)=O [(inip) nmb b F amide] (H-[Inp][dNMe2Nal][d2Nal]F-NH2)", 5],
  ["NC(=O)[C@@H](Cc1ccccc1)NC(=O)[C@@H](Cc1ccc2ccccc2c1)NC(=O)[C@@H](Cc1ccc2ccccc2c1)NC(=O)C1CCNCC1 [(inip) b b f amide] (H-[Inp][d2Nal][d2Nal][dF]-NH2)", 20],
  ["CN(C(=O)C1CCNCC1)[C@H](Cc1ccc2ccccc2c1)C(=O)N[C@@H](Cc1ccc2ccccc2c1)C(=O)N[C@@H](Cc1ccccc1)C(=O)O [(inip) nmb B F acid] (H-[Inp][dNMe2Nal][2Nal]F-OH)", 100],
  ["CN(C(=O)[C@@H](Cc1ccc2ccccc2c1)NC(=O)[C@@H](Cc1ccc2ccccc2c1)NC(=O)C1CCNCC1)[C@@H](Cc1ccccc1)C(N)=O [(inip) bb nmF amide] (H-[Inp][d2Nal][d2Nal][NMeF]-NH2)", 5],
  ["C[C@@](Cc1ccccc1)(NC(=O)[C@@H](Cc1ccc2ccccc2c1)NC(=O)[C@@H](Cc1ccc2ccccc2c1)NC(=O)C1CCNCC1)C(N)=O [(inip) b b amF amide] (H-[Inp][d2Nal][d2Nal][αMeF]-NH2)", 5],
  ["COC(=O)[C@H](Cc1ccccc1)NC(=O)[C@@H](Cc1ccc2ccccc2c1)NC(=O)[C@@H](Cc1ccc2ccccc2c1)N(C)C(=O)C1CCNCC1 [(inip) nmb b F Me ester] (H-[Inp][dNMe2Nal][d2Nal]F-OMe)", 10],
  ["O=C(N[C@H](Cc1ccc2ccccc2c1)C(=O)N[C@H](Cc1ccc2ccccc2c1)C(=O)N1CCNCC1)C1CCNCC1", 10],
  ["NCCNC(=O)[C@@H](Cc1ccc2ccccc2c1)NC(=O)[C@@H](Cc1ccc2ccccc2c1)NC(=O)C1CCNCC1 [(inip) b b tam] (H-[Inp]-[d2Nal]-[d2Nal]-Ethylenediamine)", 20]
]}

###

Test system: growth hormone secretion
assay name: GHRP induced growth hormone secretion, intravenous administration (Rat IV)
Format: in vivo
assay context: Table IV; iv injection, serum GH 10 min after injection
Experimental: Immature weanling female Sprague Dawley rats were purchased from Charles River Labs (Portage, […].) and group housed with water and food available ad libitum. When the rats were 24-30 days old (weighing 50-90 g) they were anesthetized with pentobarbitone (4 mg in 0.5 ml, approximately 60 mg/kg) given by intraperitoneal injection. […]
Non-standard residues stand in square brackets, D forms with d. Residues, ends and D or L forms follow the SMILES beside them. 2Nal = N[C@@H](Cc1ccc2ccccc2c1)C(=O)O; d2Nal = N[C@H](Cc1ccc2ccccc2c1)C(=O)O; Inp = O=C(O)C1CCNCC1; Ava = NCCCCC(=O)O
Decide by RAT IV ED50: equal to or exceeding 10 µg means YES, less means NO.

{"columns": ["molecule", "class"],
 "data": [
  ["NC(=O)[C@H](Cc1ccc2ccccc2c1)NC(=O)[C@@H](Cc1ccc2ccccc2c1)NC(=O)[C@@H](Cc1ccc2ccccc2c1)NC(=O)C1CCNCC1 [(inip) b b B amide] (H-[Inp][d2Nal][d2Nal][2Nal]-NH2)", "YES"],
  ["O=C(N[C@H](Cc1ccc2ccccc2c1)C(=O)N[C@H](Cc1ccc2ccccc2c1)C(=O)N[C@@H](Cc1ccccc1)C(=O)O)C1CCNCC1 [(inip) b b F acid, (inip)-DβNal-DβNal-Phe] (H-[Inp][d2Nal][d2Nal]F-OH)", "NO"],
  ["NC(=O)CN(CCc1ccccc1)C(=O)[C@@H](Cc1ccc2ccccc2c1)NC(=O)[C@@H](Cc1ccc2ccccc2c1)NC(=O)C1CCNCC1 [(inip) b b feg amide]", "NO"],
  ["NCCCCC(=O)N[C@H](Cc1ccccc1)C(=O)N[C@H](Cc1c[nH]c2ccccc12)C(=O)N[C@@H](Cc1ccccc1)C(N)=O [(Ava) f w F amide] (H-[Ava][dF][dW]F-NH2)", "YES"]
]}

###

target under test: rat pituitary cells (Rattus norvegicus)
Sequence (O08725 whole entry): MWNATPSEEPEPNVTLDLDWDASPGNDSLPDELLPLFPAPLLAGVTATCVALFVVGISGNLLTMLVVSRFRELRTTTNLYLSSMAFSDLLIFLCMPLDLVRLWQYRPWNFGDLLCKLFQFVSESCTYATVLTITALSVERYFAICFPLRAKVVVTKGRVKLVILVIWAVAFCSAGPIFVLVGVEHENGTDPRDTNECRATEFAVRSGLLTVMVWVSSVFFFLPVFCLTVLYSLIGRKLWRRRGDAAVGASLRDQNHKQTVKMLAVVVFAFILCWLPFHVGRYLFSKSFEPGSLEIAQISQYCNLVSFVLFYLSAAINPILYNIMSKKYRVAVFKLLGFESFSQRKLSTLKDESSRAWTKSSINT
assay context: read-out: “Pit” Cell EC50; Table II, prior art compounds; GH release, 15 min incubation
pEC50: −log10 of the molar value. Non-standard residues stand in square brackets, D forms with d. Residues, ends and D or L forms follow the SMILES beside them. d2Nal = N[C@H](Cc1ccc2ccccc2c1)C(=O)O; Ava = NCCCCC(=O)O
# Lookup of reported pEC50 keyed by entry

{"columns": ["molecule", "pEC50"],
 "data": [
  ["CC(C)(N)CC(=O)N[C@@H]1CCc2ccccc2N(Cc2ccc(-c3ccccc3-c3nnn[nH]3)cc2)C1=O [L-692,429, reference compound]", 7.58],
  ["C[C@H](NC(=O)[C@@H](Cc1ccc2ccccc2c1)NC(=O)CCCCN)C(=O)N[C@@H](Cc1c[nH]c2ccccc12)C(=O)N[C@H](Cc1ccccc1)C(=O)N[C@@H](CCCCN)C(N)=O [(Ava) b A W f K amide, reference compound] (H-[Ava][d2Nal]AW[dF]K-NH2)", 9.70],
  ["C[C@H](N)C(=O)N[C@@H](Cc1c[nH]cn1)C(=O)N[C@H](Cc1ccc2ccccc2c1)C(=O)N[C@@H](C)C(=O)N[C@@H](Cc1c[nH]c2ccccc12)C(=O)N[C@H](Cc1ccccc1)C(=O)N[C@@H](CCCCN)C(N)=O [GHRP 1, Ala-His-D βNal-Ala-Trp-D Phe-Lys-NH2, reference compound] (H-AH[d2Nal]AW[dF]K-NH2)", 8.85],
  ["C[C@H](NC(=O)[C@@H](Cc1ccc2ccccc2c1)NC(=O)[C@@H](C)N)C(=O)N[C@@H](Cc1c[nH]c2ccccc12)C(=O)N[C@H](Cc1ccccc1)C(=O)N[C@@H](CCCCN)C(N)=O [GHRP 2, D Ala-D βNal-Ala-Trp-D Phe-Lys-NH2, reference compound] (H-[dA][d2Nal]AW[dF]K-NH2)", 9.00],
  ["C[C@@H](O)CNC(C)(C)CC(=O)N[C@@H]1CCc2ccccc2N(Cc2ccc(-c3ccccc3-c3nnn[nH]3)cc2)C1=O [L-692,585, reference compound]", 7.97]
]}
